Hi there, I'd appreciate the recorded IC50 for every entry that follows.
# target.or.test.system: ligand binding domain of human ROR gamma (Homo sapiens, UniProt P51449)
# Construct: NM_001001523; expressed in transfected cells; host or cells: HEK293T
# Sequence (P51449 247-497 isoform P51449-2): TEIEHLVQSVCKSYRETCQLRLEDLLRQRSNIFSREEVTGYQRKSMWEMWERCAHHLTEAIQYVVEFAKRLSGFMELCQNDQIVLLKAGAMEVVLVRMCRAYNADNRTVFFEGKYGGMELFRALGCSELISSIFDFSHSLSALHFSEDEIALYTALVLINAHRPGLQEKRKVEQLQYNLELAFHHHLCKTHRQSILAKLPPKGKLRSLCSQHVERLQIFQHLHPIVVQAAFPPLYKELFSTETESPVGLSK
# assay.explanation: ROR gamma reporter gene assay (GAL4-RORγ LBD luciferase, Dual-Glo)
# Assay type: cell-based
# test.settings: HEK293T cells transfected with pM-ROR gamma, 8 concentrations 3.5 nM to 10.5 μM, 24 h incubation; read-out: result (pIC50, inhibition of RORγ transcriptional activity) (converted)

Examples from the recorded data:
| molecule | IC50 |
| --- | --- |
| O=C(CN(Cc1cc(F)cc(F)c1)C(=O)c1cnn([C@H]2CC[C@H](C(=O)O)CC2)c1C(F)(F)F)c1c(Cl)cc(OC(F)(F)F)cc1Cl [Example 127] | 2.04e+06 pM |
| CC(C)(C)[C@H]1C[C@@H](N(CC(=O)c2c(Cl)cncc2Cl)C(=O)c2cnn([C@H]3CC[C@H](C(=O)O)CC3)c2C(F)(F)F)C1 [Example 131] | 83200 pM |
| CC1(C)[C@@H]2C[C@H](N(CC(=O)c3c(Cl)cccc3Cl)C(=O)c3cnn([C@H]4CC[C@](C)(C(=O)O)CC4)c3C(F)(F)F)C[C@@H]21 [Example 278] | 11700 pM |
| O=C(CN(CC1CCOCC1)C(=O)c1cnn([C@H]2CC[C@H](C(=O)O)CC2)c1C(F)(F)F)c1c(Cl)cncc1Cl [Example 71] | 2.09e+06 pM |
| Cc1coc(C)c1C(=O)CN(Cc1cc(F)cc(F)c1)C(=O)c1cnn([C@H]2CC[C@H](C(=O)O)CC2)c1C(F)(F)F [Example 63] | 3.39e+06 pM |
| Cc1nccnc1C(O)CN(C(=O)c1cnn([C@H]2CC[C@](C)(C(=O)O)CC2)c1C(F)(F)F)[C@H]1C[C@@H]2[C@H](C1)C2(C)C (stereo partly drawn) [Example 410] | 2.14e+06 pM |

Okay, here is my list. What is IC50 for each of these?
1. COc1cncc(OC)c1C(=O)CN(Cc1cc(F)cc(F)c1)C(=O)c1cnn([C@H]2CC[C@H](C(=O)O)CC2)c1C(F)(F)F [Example 119]
2. CC(C)(C)CN(CC(=O)c1c[nH]c2cccc(Cl)c12)C(=O)c1cnn([C@H]2CC[C@](C)(C(=O)O)CC2)c1C(F)(F)F [Example 352]

(A)
1. 1.51e+06 pM
2. 4.07e+06 pM

State recorded IC50 for all listed molecules.
1. CC1(C)CCCC(N(CC(=O)c2c(Cl)cncc2Cl)C(=O)c2cnn([C@H]3CC[C@H](C(=O)O)CC3)c2C(F)(F)F)C1 (stereo partly drawn) [Example 205]
2. O=C(CN(C(=O)c1cnn([C@H]2CC[C@H](C(=O)O)CC2)c1C(F)(F)F)C1CCCC1)c1c(Cl)cncc1Cl [Example 185]
3. CC(C)(C)CN(CC(=O)c1c(Cl)cccc1Cl)C(=O)c1cnn(C23CCC(C(=O)O)(CC2)CC3)c1C(F)(F)F [Example 317]

(A)
138000 pM
1.82e+06 pM
10000 pM

(Q) Give its IC50 value. Item: Cc1cncc(C)c1C(=O)CN(Cc1cc(F)cc(F)c1)C(=O)c1cnn([C@H]2CC[C@H](C(=O)O)CC2)c1C(F)(F)F [Example 52]
(A) 245000 pM
